Assay: Animal study: plasma pharmacokinetics of Compound A and metabolite Compound B after sublingual or oral administration of the Compound A solid composition
Details: male, beagle, dog, plasma, 13 mg, AUC (0-8 h), Sublingual, Subject 2, anesthetized dog; 13 mg Compound A, Example 6 tablet
Recorded metric: AUC(0-t) (µM·h)

>>> measured_value("CN[C@@H](C)C/C=C/c1cncc(OC(C)C)c1")
1.5

###

Test: Animal study: plasma pharmacokinetics of Compound A and metabolite Compound B after sublingual or oral administration of the Compound A solid composition
Details: male, beagle, dog, plasma, po, 13 mg, AUC, Oral (gavage), Subject 1, dog; 13 mg Compound A, Example 6 tablet; zero to infinity
Recorded metric: AUC (µM·h)

>>> measured_value("CN[C@@H](C)C/C=C/c1cncc(OC(C)C)c1 [Compound A]")
0.38

###

Assay: in vivo
Conditions: male, beagle, dog, 13 mg, Cmax
Recorded metric: Cmax (nM)

>>> measured_value("CC(C)Oc1cncc(/C=C/C[C@H](C)N)c1 [Compound B]")
99

###

Settings: male, beagle, dog, in vivo, po, 13 mg
Recorded metric: Cmax (nM)

>>> measured_value("CC(C)Oc1cncc(/C=C/C[C@H](C)N)c1")
230

###

Assay: Animal study: plasma pharmacokinetics of Compound A and metabolite Compound B after sublingual or oral administration of the Compound A solid composition
Settings: male, beagle, dog, plasma, 13 mg, Tmax, Sublingual, Subject 1, anesthetized dog; 13 mg Compound A, Example 6 tablet
Recorded metric: Tmax (min)

>>> measured_value("CN[C@@H](C)C/C=C/c1cncc(OC(C)C)c1")
30

###

Assay: Animal study: plasma pharmacokinetics of Compound A and metabolite Compound B after sublingual or oral administration of the Compound A solid composition
Conditions: male, beagle, dog, plasma, 13 mg, AUC (0-8 h), Sublingual, Subject 1, anesthetized dog; 13 mg Compound A, Example 6 tablet
Recorded metric: AUC(0-t) (µM·h)

>>> measured_value("CN[C@@H](C)C/C=C/c1cncc(OC(C)C)c1 [Compound A]")
2

###

Assay: Animal study: plasma pharmacokinetics of Compound A and metabolite Compound B after sublingual or oral administration of the Compound A solid composition
Conditions: male, beagle, dog, plasma, po, 13 mg, Cmax, Oral (gavage), Subject 2, dog; 13 mg Compound A, Example 6 tablet
Recorded metric: Cmax (nM)

>>> measured_value("CN[C@@H](C)C/C=C/c1cncc(OC(C)C)c1")
120

###

Test: Animal study: plasma pharmacokinetics of Compound A and metabolite Compound B after sublingual or oral administration of the Compound A solid composition
Conditions: male, beagle, dog, plasma, po, 13 mg, T½, Oral (gavage), Subject 1, dog; 13 mg Compound A, Example 6 tablet
Recorded metric: half-life

>>> measured_value("CN[C@@H](C)C/C=C/c1cncc(OC(C)C)c1 [Compound A]")
"1.3 h"

###

Assay: Animal study: plasma pharmacokinetics of Compound A and metabolite Compound B after sublingual or oral administration of the Compound A solid composition
Details: male, beagle, dog, plasma, po, 13 mg, Tmax, Oral (gavage), Subject 2, dog; 13 mg Compound A, Example 6 tablet
Recorded metric: Tmax (h)

>>> measured_value("CN[C@@H](C)C/C=C/c1cncc(OC(C)C)c1")
1

###

Assay: Animal study: plasma pharmacokinetics of Compound A and metabolite Compound B after sublingual or oral administration of the Compound A solid composition
Settings: male, beagle, dog, plasma, other: sublingual, 13 mg, plasma concentration at 5 minutes, 5 minutes after sublingual administration, Subject 1, dog, 13 mg
Recorded metric: concentration at 5 min

>>> measured_value("CN[C@@H](C)C/C=C/c1cncc(OC(C)C)c1")
"~200 nM"

###

Test: Animal study: plasma pharmacokinetics of Compound A and metabolite Compound B after sublingual or oral administration of the Compound A solid composition
Conditions: male, beagle, dog, plasma, po, 13 mg, plasma concentration at 5 minutes, 5 minutes after oral administration, Subject 2, dog, 13 mg
Recorded metric: concentration at 5 min

>>> measured_value("CN[C@@H](C)C/C=C/c1cncc(OC(C)C)c1")
"~1.5 nM"

###

Assay: Animal study: plasma pharmacokinetics of Compound A and metabolite Compound B after sublingual or oral administration of the Compound A solid composition
Settings: male, beagle, dog, plasma, 13 mg, T½, Sublingual, Subject 2, anesthetized dog; 13 mg Compound A, Example 6 tablet
Recorded metric: half-life (h)

>>> measured_value("CN[C@@H](C)C/C=C/c1cncc(OC(C)C)c1 [Compound A]")
1.4

###

Assay: Animal study: plasma pharmacokinetics of Compound A and metabolite Compound B after sublingual or oral administration of the Compound A solid composition
Details: male, beagle, dog, plasma, po, 13 mg, Tmax, Oral (gavage), Subject 1, dog; 13 mg (as base) Compound A hydroxybenzoate salt, Example 6 tablet
Recorded metric: Tmax (min)

>>> measured_value("CN[C@@H](C)C/C=C/c1cncc(OC(C)C)c1")
45

###

Assay: Animal study: plasma pharmacokinetics of Compound A and metabolite Compound B after sublingual or oral administration of the Compound A solid composition
Settings: male, beagle, dog, plasma, 13 mg, T½, Sublingual, Subject 1, anesthetized dog; 13 mg Compound A, Example 6 tablet
Recorded metric: half-life (h)

>>> measured_value("CN[C@@H](C)C/C=C/c1cncc(OC(C)C)c1")
1.3

###

Assay: Animal study: plasma pharmacokinetics of Compound A and metabolite Compound B after sublingual or oral administration of the Compound A solid composition
Conditions: male, beagle, dog, plasma, 13 mg, Cmax, Sublingual, Subject 1, anesthetized dog; 13 mg Compound A, Example 6 tablet
Recorded metric: Cmax (nM)

>>> measured_value("CN[C@@H](C)C/C=C/c1cncc(OC(C)C)c1 [Compound A]")
1400

###

Test: Animal study: plasma pharmacokinetics of Compound A and metabolite Compound B after sublingual or oral administration of the Compound A solid composition
Details: male, beagle, dog, plasma, po, 13 mg, AUC (0-8 h), Oral (gavage), Subject 2, dog; 13 mg Compound A, Example 6 tablet
Recorded metric: AUC(0-t) (µM·h)

>>> measured_value("CN[C@@H](C)C/C=C/c1cncc(OC(C)C)c1 [Compound A]")
0.28

###

Assay: Animal study: plasma pharmacokinetics of Compound A and metabolite Compound B after sublingual or oral administration of the Compound A solid composition
Details: male, beagle, dog, plasma, 13 mg, Tmax, Sublingual, Subject 2, anesthetized dog; 13 mg Compound A, Example 6 tablet
Recorded metric: Tmax (h)

>>> measured_value("CN[C@@H](C)C/C=C/c1cncc(OC(C)C)c1")
1

###

Assay: Animal study: plasma pharmacokinetics of Compound A and metabolite Compound B after sublingual or oral administration of the Compound A solid composition
Conditions: male, beagle, dog, plasma, 13 mg, Cmax, Sublingual, Subject 2, anesthetized dog; 13 mg Compound A, Example 6 tablet
Recorded metric: Cmax

>>> measured_value("CN[C@@H](C)C/C=C/c1cncc(OC(C)C)c1")
"610 nM"
